Data provenance is BigSolDB 2.1.

run conditions: in n-butanol, 303.15 K
measurement label: solubility (mole fraction)

*Q* Note solubility (mole fraction) for the compound shown: COc1ccc(-c2cc(-c3ccc(O)c(OC)c3)c(C#N)c(=O)[nH]2)cc1
*A* 0.000344

*Q* Note solubility (mole fraction) for the compound shown: COc1cc(-c2cc(-c3ccc(F)cc3)[nH]c(=O)c2C#N)ccc1O
*A* 0.000589

*Q* Note solubility (mole fraction) for the compound shown: COc1cc(-c2cc(-c3ccc(Cl)cc3)[nH]c(=O)c2C#N)ccc1O
*A* 0.000445

P: COc1cc(-c2cc(-c3ccc(O)cc3)[nH]c(=O)c2C#N)ccc1O
Q: COc1cc(-c2cc(-c3ccc(Br)cc3)[nH]c(=O)c2C#N)ccc1O
*Q* Higher solubility (mole fraction) between P and Q ? # answer = label of selected item
*A* P

====

run conditions: in n-butanol, 308.15 K
measurement label: solubility (mole fraction)

Take a look at these entries with their results.
*Q* Note solubility (mole fraction) for the molecule shown: COc1ccc(-c2cc(-c3ccc(O)c(OC)c3)c(C#N)c(=O)[nH]2)cc1
*A* 0.000389

*Q* Note solubility (mole fraction) for the molecule shown: COc1cc(-c2cc(-c3ccc(Cl)cc3)[nH]c(=O)c2C#N)ccc1O
*A* 0.000489

*Q* Note solubility (mole fraction) for the molecule shown: COc1cc(-c2cc(-c3ccc(F)cc3)[nH]c(=O)c2C#N)ccc1O
*A* 0.000648

I: COc1cc(-c2cc(-c3ccc(O)cc3)[nH]c(=O)c2C#N)ccc1O
II: COc1cc(-c2cc(-c3ccc(Br)cc3)[nH]c(=O)c2C#N)ccc1O
*Q* Lower value of solubility (mole fraction) belongs to which: I or II ? # answer = label of selected item
*A* II

====

run conditions: in methanol, 318.15 K
measurement label: solubility (mole fraction)

*Q* Note solubility (mole fraction) for the molecule shown: COc1ccc(-c2cc(-c3ccc(O)c(OC)c3)c(C#N)c(=O)[nH]2)cc1
*A* 0.000592

*Q* Note solubility (mole fraction) for the molecule shown: COc1cc(-c2cc(-c3ccc(Br)cc3)[nH]c(=O)c2C#N)ccc1O
*A* 0.000642

*Q* Note solubility (mole fraction) for the molecule shown: COc1cc(-c2cc(-c3ccc(O)cc3)[nH]c(=O)c2C#N)ccc1O
*A* 0.000693

*Q* Note solubility (mole fraction) for the molecule shown: COc1cc(-c2cc(-c3ccc(Cl)cc3)[nH]c(=O)c2C#N)ccc1O
*A* 0.000677

*Q* Note solubility (mole fraction) for the molecule shown: COc1cc(-c2cc(-c3ccc(F)cc3)[nH]c(=O)c2C#N)ccc1O
*A* 0.000718

====

run conditions: in 1,4-dioxane, 298.15 K
measurement label: solubility (mole fraction)

*Q* Note solubility (mole fraction) for the compound shown: COc1cc(-c2cc(-c3ccc(Cl)cc3)[nH]c(=O)c2C#N)ccc1O
*A* 0.00149

*Q* Note solubility (mole fraction) for the compound shown: COc1ccc(-c2cc(-c3ccc(O)c(OC)c3)c(C#N)c(=O)[nH]2)cc1
*A* 0.00145

*Q* Note solubility (mole fraction) for the compound shown: COc1cc(-c2cc(-c3ccc(Br)cc3)[nH]c(=O)c2C#N)ccc1O
*A* 0.0014

*Q* Note solubility (mole fraction) for the compound shown: COc1cc(-c2cc(-c3ccc(O)cc3)[nH]c(=O)c2C#N)ccc1O
*A* 0.00153

*Q* Note solubility (mole fraction) for the compound shown: COc1cc(-c2cc(-c3ccc(F)cc3)[nH]c(=O)c2C#N)ccc1O
*A* 0.00156
